- Test system: S. aureus VRSA
- Test description: MIC, broth microdilution, vancomycin-resistant S. aureus (VRSA)
- Format: cell-based, Staphylococcus aureus
- Assay context: VRSA; ratio of MIC of vancomycin and MIC of analogue
Collected MIC-fold improvement vs. vancomycin values appear next to each entry.
# print the numeric value only

Use these answered entries as a reference point.
1) CN[C@H](CC(C)C)C(=O)N[C@H]1C(=O)N[C@@H](CC(N)=O)C(=O)N[C@H]2C(=O)N[C@H]3C(=O)N[C@H](C(=O)N[C@H](C(=O)NCC(=O)Nc4ccc(C#Cc5ccccc5)cc4)c4cc(O)cc(O)c4-c4cc3ccc4O)[C@H](O)c3ccc(c(Cl)c3)Oc3cc2cc(c3O[C@@H]2O[C@H](CO)[C@@H](O)[C@H](O)[C@H]2O[C@H]2C[C@](C)(N)[C@H](O)[C@H](C)O2)Oc2ccc(cc2Cl)[C@H]1O | 128
2) CNC(CC(C)C)C(=O)NC1C(=O)NC(CC(N)=O)C(=O)NC2C(=O)NC3C(=O)NC(C(=O)NC(C(=O)NCC(=O)Nc4ccc(C#CC5CCCC5)cc4)c4cc(O)cc(O)c4-c4cc3ccc4O)C(O)c3ccc(c(Cl)c3)Oc3cc2cc(c3OC2OC(CO)C(O)C(O)C2OC2CC(C)(N)C(O)C(C)O2)Oc2ccc(cc2Cl)C1O (stereo not drawn) | 64

// next entry
[in] # get_value(readout='MIC-fold improvement vs. vancomycin', item= CCCCCCn1cc(-c2ccc(NC(=O)CNC(=O)C3NC(=O)C4NC(=O)C(NC(=O)C5NC(=O)C(CC(N)=O)NC(=O)C(NC(=O)C(CC(C)C)NC)C(O)c6ccc(c(Cl)c6)Oc6cc5cc(c6OC5OC(CO)C(O)C(O)C5OC5CC(C)(N)C(O)C(C)O5)Oc5ccc(cc5Cl)C4O)c4ccc(O)c(c4)-c4c(O)cc(O)cc43)cc2)nn1 (stereo not drawn) )
[out] 128
